Where these numbers come from: patent US20250195521A1

Form field: pIC50 (one value per entry).
- Tested on: NCI-H358 cells (K-Ras G12C)
- PROTOCOL_DESCRIPTION: CellTiter-Glo cell viability, NCI-H358
- Type: cell-based, human
- EXPERIMENTAL_CONTEXT: K-Ras G12C, 5-day treatment; read-out: H358 Cell Viability IC50
pIC50: −log10 of the molar value.

Answered examples (6):
{"MOLECULE": "CCn1c(-c2cccnc2[C@H](C)OC)c2c3cc(ccc31)-c1cc(O)cc(c1)C[C@H](NC(=O)[C@H](C(C)C)N(C)C(=O)N1CC(N(C)C)C1)C(=O)N1CCC[C@H](N1)C(=O)OCC(C)(C)C2 [Compound A170]", "pIC50": "7.00 to 8.00"}
{"MOLECULE": "CCn1c(-c2cc(N3CCN(C)CC3)cnc2[C@H](C)OC)c2c3cc(ccc31)-c1nc(co1)C[C@H](NC(=O)[C@H]1[C@H](C)[C@@H]1C)C(=O)N1CCC[C@H](N1)C(=O)OCC(C)(C)C2 [Compound A391]", "pIC50": "7.00 to 8.00"}
{"MOLECULE": "CCn1c(-c2cccnc2COC)c2c3cc(ccc31)-c1cc(O)cc(c1)C[C@H](NC(=O)[C@H](C(C)C)N(C)C(=O)c1ccc(NC(=O)/C=C/CN(C)C)cn1)C(=O)N1CCC[C@H](N1)C(=O)OCC(C)(C)C2 [Compound A67]", "pIC50": "5.00 to 6.00"}
{"MOLECULE": "CCO[C@@H]1c2nc(cs2)-c2ccc3c(c2)c(c(-c2cc(C4CCN(C5COC5)CC4)cnc2[C@H](C)OC)n3CC)CC(C)(C)COC(=O)[C@@H]2CCCN(N2)C(=O)[C@H]1NC(=O)[C@H]1[C@H](C)[C@@H]1C [Compound A449]", "pIC50": "6.00 to 7.00"}
{"MOLECULE": "CCO[C@@H]1c2nc(cs2)-c2ccc3c(c2)c(c(-c2cccnc2[C@H](C)OC)n3CC)CC(C)(C)COC(=O)[C@@H]2CCCN(N2)C(=O)[C@H]1NC(=O)[C@H]1[C@H](C)[C@@H]1c1cn(C)cn1 [Compound A507]", "pIC50": "7.00 to 8.00"}
{"MOLECULE": "CCn1c(-c2cccnc2[C@H](C)OC)c2c3cc(ccc31)-c1csc(n1)[C@@H](OCC1CCN(C)CC1)[C@H](NC(=O)[C@H]1C[C@@H]1C)C(=O)N1CCC[C@H](N1)C(=O)OCC(C)(C)C2 [Compound A451]", "pIC50": "7.00 to 8.00"}

Ask: Which pIC50 is reported for this molecule? CCn1c(-c2cccnc2[C@H](C)OC)c2c3cc(ccc31)-c1csc(n1)C[C@H](NC(=O)N1CCC1)C(=O)N1CCC[C@H](N1)C(=O)OCC(C)(C)C2 [Compound A369]
Reply: 6.00 to 7.00

* * *

- TARGET: KRAS WT (Homo sapiens (Human), UniProt P01116+P62937)
- Sequence (P01116 other isoform, or with tags, fused parts or gaps): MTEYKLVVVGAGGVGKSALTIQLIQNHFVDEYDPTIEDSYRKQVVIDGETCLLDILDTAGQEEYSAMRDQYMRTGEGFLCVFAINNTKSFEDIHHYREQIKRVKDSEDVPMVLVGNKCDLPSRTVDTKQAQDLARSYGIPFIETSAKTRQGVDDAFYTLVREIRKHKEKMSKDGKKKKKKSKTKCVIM
- Sequence (P62937 whole entry): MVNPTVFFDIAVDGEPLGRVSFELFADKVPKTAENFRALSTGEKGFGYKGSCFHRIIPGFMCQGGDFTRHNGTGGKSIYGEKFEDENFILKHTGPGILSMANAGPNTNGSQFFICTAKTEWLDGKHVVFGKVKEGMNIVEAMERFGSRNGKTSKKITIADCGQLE
- PROTOCOL_DESCRIPTION: Ras-Raf disruption/FRET/MOA assay (BRAF RBD, Cyclophilin A)
- Assay type: biochemical
- EXPERIMENTAL_CONTEXT: read-out: KRAS WT FRET data IC50
pIC50: −log10 of the molar value.
VALUE_KIND: pIC50

Example results:
{"SMILES_NOTATION": "CCn1c(-c2cccnc2[C@H](C)OC)c2c3cc(ccc31)-c1cc(O)cc(c1)C[C@H](NC(=O)[C@H](C(C)C)N(C)C(=O)OCc1ccccc1)C(=O)N1CCC[C@H](N1)C(=O)OCC(C)(C)C2", "OBS_VALUE": "5.00 to 6.00"}
{"SMILES_NOTATION": "CCn1c(-c2cccnc2[C@H](C)OC)c2c3cc(ccc31)-c1csc(n1)C[C@H](NC(=O)[C@H](C(C)C)N(C)C(=O)N1CCCCC1)C(=O)N1CCC[C@H](N1)C(=O)OCC(C)(C)C2", "OBS_VALUE": "7.00 to 8.00"}
{"SMILES_NOTATION": "CCn1c(-c2cccnc2[C@H](C)OC)c2c3cc(ccc31)-c1cc(O)cc(c1)C[C@H](NC(=O)[C@H](C(C)C)N(C)C(=O)[C@H]1CCCC[C@H]1N)C(=O)N1CCC[C@H](N1)C(=O)OCC(C)(C)C2", "OBS_VALUE": "7.00 to 8.00"}

Ask: Which pIC50 value belongs to `CCn1c(-c2cccnc2[C@H](C)OC)c2c3cc(ccc31)-c1csc(n1)C[C@H](NC(=O)[C@H](C(C)C)N(C)C(=O)N1CCC13COC3)C(=O)N1CCC[C@H](N1)C(=O)OCC(C)(C)C2` ?
Reply: 7.00 to 8.00

Ask: What about this compound? `CCn1c(-c2cccnc2[C@H](C)OC)c2c3cc(ccc31)-c1csc(n1)C[C@H](NC(=O)[C@H](C(C)C)N(C)C(=O)N1CCN(C(=O)[C@@H]3CCCN3C)CC1)C(=O)N1CCC[C@H](N1)C(=O)OCC(C)(C)C2`
Reply: 7.00 to 8.00

Ask: Same read-out for `CCn1c(-c2cccnc2[C@H](C)OC)c2c3cc(ccc31)-c1csc(n1)C[C@H](NC(=O)[C@H](C(C)C)N(C)C(=O)N1CC([C@H](C)COC)C1)C(=O)N1CCC[C@H](N1)C(=O)OCC(C)(C)C2` ?
Reply: 6.00 to 7.00

* * *

- TARGET: KRAS G12C (Homo sapiens (Human), UniProt P01116+P62937, G12C)
- Sequence (P01116-2 other isoform, or with tags, fused parts or gaps G12C, one chain of several): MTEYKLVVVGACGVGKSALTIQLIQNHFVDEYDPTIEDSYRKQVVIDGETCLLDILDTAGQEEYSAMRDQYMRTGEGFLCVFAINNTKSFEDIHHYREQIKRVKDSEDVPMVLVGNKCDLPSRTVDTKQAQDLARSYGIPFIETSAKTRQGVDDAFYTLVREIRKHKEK
- PROTOCOL_DESCRIPTION: Ras-Raf disruption/FRET/MOA assay (BRAF RBD, Cyclophilin A)
- Format: biochemical
- EXPERIMENTAL_CONTEXT: read-out: KRAS G12C FRET IC50
VALUE_KIND: IC50

Example entries begin here.
{"COMPOUND": "CCn1c(-c2cccnc2[C@H](C)OC)c2c3cc(ccc31)-c1csc(n1)C[C@H](NC(=O)[C@H](C(C)C)N(C)C(=O)N1CCCCC1)C(=O)N1CCC[C@H](N1)C(=O)OCC(C)(C)C2 [Compound A363]", "TARGET": "KRAS G12C (Homo sapiens (Human), UniProt P01116+P62937, G12C)", "OBS_VALUE": "0.01 to 0.1 µM"}
{"COMPOUND": "CCn1c(-c2cc(N3CCN(C)CC3)cnc2[C@H](C)OC)c2c3cc(ccc31)-c1nc(co1)C[C@H](NC(=O)[C@H]1[C@H](C)[C@@H]1C)C(=O)N1CCC[C@H](N1)C(=O)OCC(C)(C)C2 [Compound A391]", "TARGET": "KRAS G12C (Homo sapiens (Human), UniProt P01116+P62937, G12C)", "OBS_VALUE": "0.01 to 0.1 µM"}
{"COMPOUND": "CCn1c(-c2cccnc2[C@H](C)OC)c2c3cc(ccc31)-c1csc(n1)C[C@H](NC(=O)[C@H](C(C)C)N(C)C(=O)N1CC[C@@H]1C)C(=O)N1CCC[C@H](N1)C(=O)OCC(C)(C)C2 [Compound A304]", "TARGET": "KRAS G12C (Homo sapiens (Human), UniProt P01116+P62937, G12C)", "OBS_VALUE": "0.01 to 0.1 µM"}

Ask: Look up IC50: CCn1c(-c2cccnc2[C@H](C)OC)c2c3cc(ccc31)-c1cc(O)cc(c1)C[C@H](NC(=O)[C@H](C(C)C)N(C)C(=O)[C@H]1CC[C@@H](C(N)=O)O1)C(=O)N1CCC[C@H](N1)C(=O)OCC(C)(C)C2 [Compound A414]
Reply: 0.01 to 0.1 µM

Ask: What do you have for CCn1c(-c2cccnc2[C@H](C)OC)c2c3cc(ccc31)-c1cc(O)cc(c1)C[C@H](NC(=O)[C@H](C(C)C)N(C)C(=O)[C@H]1C[C@H]1F)C(=O)N1CCC[C@H](N1)C(=O)OCC(C)(C)C2 [Compound A162] ?
Reply: 0.01 to 0.1 µM

* * *

Measured pIC50, listed per entry for reference.
- TARGET: KRAS WT (Homo sapiens (Human), UniProt P01116+P62937)
- PROTOCOL_DESCRIPTION: Ras-Raf disruption/FRET/MOA assay (BRAF RBD, Cyclophilin A)
- Type: biochemical
- EXPERIMENTAL_CONTEXT: KRAS WT FRET data IC50
pIC50: −log10 of the molar value.

{"SMILES_NOTATION": "CCn1c(-c2cccnc2[C@H](C)OC)c2c3cc(ccc31)-c1cc(O)cc(c1)C[C@H](NC(=O)N1CCOCC1)C(=O)N1CCC[C@H](N1)C(=O)OCC(C)(C)C2", "TARGET": "KRAS WT (Homo sapiens (Human), UniProt P01116+P62937)", "pIC50": "5.00 to 6.00"}

From here, focus on the item given below.
Ask: Field request: pIC50 | item: `CCn1c(-c2cccnc2[C@H](C)OC)c2c3cc(ccc31)-c1cc(O)cc(c1)C[C@H](NS(=O)(=O)c1ccc(OC)cc1OC)C(=O)N1CCC[C@H](N1)C(=O)OCC(C)(C)C2`
Reply: < 5.00
